Data provenance is ChEMBL document CHEMBL4393701.

Test system: Aspergillus versicolor
Assay: Fungicidal activity against Aspergillus versicolor ATCC 11730 incubated for 72 hrs followed by sub-culturing on broth malt medium and measured after 72 hrs
Assay type: functional
Settings: ATCC 11730, 72 h
Recorded Metric: MFC (×10⁻² mM)
Dear colleague, please return just the value in ×10⁻² mM, with no unit written.

# example entries with known answers
[
  {
    "Compound": "CCOc1ccc2c(c1)-c1c(ssc1=S)C(C)(C)N2",
    "Tested On": "Aspergillus versicolor",
    "Readout Number": 11.8
  },
  {
    "Compound": "COc1cc2c(c([N+](=O)[O-])c1)NC(C)(C)c1ssc(=S)c1-2",
    "Tested On": "Aspergillus versicolor",
    "Readout Number": 8.81
  },
  {
    "Compound": "CC(=O)N1CCN(c2ccc(OCC3COC(Cn4ccnc4)(c4ccc(Cl)cc4Cl)O3)cc2)CC1 (configuration not stated)",
    "Tested On": "Aspergillus versicolor",
    "Readout Number": 380
  },
  {
    "Compound": "Cc1ccc2c(c1)-c1c(ssc1=S)C(C)(C)N2C(=O)c1cccnc1",
    "Tested On": "Aspergillus versicolor",
    "Readout Number": 15.6
  },
  {
    "Compound": "c1ccc(-c2ccc(C(c3ccccc3)n3ccnc3)cc2)cc1 (configuration not stated)",
    "Tested On": "Aspergillus versicolor",
    "Readout Number": 64
  },
  {
    "Compound": "CC1(C)c2ssc(=S)c2-c2ccccc2N1C(=O)CSC1=NCCS1",
    "Tested On": "Aspergillus versicolor",
    "Readout Number": 7.06
  },
  {
    "Compound": "COc1cc2c3c(c1)-c1c(ssc1=S)C(C)(C)N3C(=O)/C2=C1\\SC(=S)NC1=O",
    "Tested On": "Aspergillus versicolor",
    "Readout Number": 25.8
  },
  {
    "Compound": "Cc1ccc2c(c1)-c1c(ssc1=S)C(C)(C)N2C(=O)CSc1nn(-c2ccccc2)c(=S)s1",
    "Tested On": "Aspergillus versicolor",
    "Readout Number": 44
  }
]

Measured MFC of COc1ccc2c(c1)-c1c(ssc1=S)C(C)(C)N2C(=O)CSc1nc2ccccc2s1 : 2.98

Measured MFC of CCOc1ccc2c(c1)-c1c(ssc1=S)C(C)(C)N2C(=O)c1ccc(Cl)c([N+](=O)[O-])c1 : 24.3

Measured MFC of CC1(C)c2ssc(=S)c2-c2cccc3c2N1C(=O)/C3=N/NC(N)=S : 30.6

Measured MFC of CC1(C)c2ssc(=S)c2-c2ccccc2N1C(=O)CN1C(=O)CCC1=O : 29.7

====

Tested on: Salmonella typhimurium
Experiment: Bactericidal activity against Salmonella typhimurium ATCC 13311 incubated for 24 hrs followed by re-plating on tryptic soy broth
Format: functional, Salmonella enterica subsp. enterica serovar Typhimurium
Conditions: Salmonella enterica, ATCC 13311, 24 h
So basically: is MBC under 60 µM? Then 1 (yes). Not under? Then 0 (no).

Example cases with answers are listed next.
[
  {
    "Compound Smiles": "Cc1ccc2c(c1)-c1c(ssc1=S)C(C)(C)N2C(=O)CSc1nn(-c2ccccc2)c(=S)s1",
    "Class": "1 (yes)"
  },
  {
    "Compound Smiles": "CC1(C)c2ssc(=S)c2-c2cccc3c2N1C(=O)/C3=N/NC(N)=S",
    "Class": "0 (no)"
  },
  {
    "Compound Smiles": "Cc1ccc2c(c1)-c1c(ssc1=S)C(C)(C)N2C(=O)c1cccnc1",
    "Class": "1 (yes)"
  },
  {
    "Compound Smiles": "CC1(C)c2ssc(=S)c2-c2ccccc2N1C(=O)CSC1=NCCS1",
    "Class": "0 (no)"
  },
  {
    "Compound Smiles": "COc1cc2c3c(c1)-c1c(ssc1=S)C(C)(C)N3C(=O)/C2=C1\\SC(=S)NC1=O",
    "Class": "0 (no)"
  }
]

Challenge: Does the reported MBC of CC1(C)c2ssc(=S)c2-c2ccccc2N1C(=O)CN1C(=O)CCC1=O stay below 60 µM?
Response given: 0 (no)

Challenge: Does the reported MBC of COc1cc2c(c([N+](=O)[O-])c1)NC(C)(C)c1ssc(=S)c1-2 stay below 60 µM?
Response given: 0 (no)
